molecular target: Integrin alpha-4/beta-7 (Mus musculus) (UniProt Q00651+P26011); assay: Inhibition of alpha4beta7 assessed as inhibition of Mn(2+)-activated adhesion of mouse TK-1 T cells to mouse MAdCAM-1 at 50 uM incubated for 1 hr by cell adhesion assay; assay type: cell-based
*1 amine or outer side, *2 acyl side, *3 side chain or, on linkers, in order; H or OH if unused. Where a SMILES comes first, the peptide text is derived from it. [ ]: non-standard residue; d: D form. The star is where a group is joined. X2 = CCc1ccc(-c2ccc(C[C@H](N[*:1])C(=O)[*:2])cc2)cc1; Biotin = O=C1N[C@H]2[C@H](CS[C@H]2CCCCC(=O)*)N1; Bip = N[C@@H](Cc1ccc(-c2ccccc2)cc1)C(=O)O
ASSAY ENDPOINT: inhibition
Answer format: number, then unit.

N=C(N)NCCC[C@H](NC(=O)CCCC[C@@H]1SC[C@@H]2NC(=O)N[C@@H]21)C(=O)N[C@@H](CCCNC(=N)N)C(=O)N[C@@H](CCCNC(=N)N)C(=O)N[C@@H](CCCNC(=N)N)C(=O)N[C@@H](CCCNC(=N)N)C(=O)N[C@@H](CCCNC(=N)N)C(=O)N[C@@H](CCCNC(=N)N)C(=O)N[C@@H](CCCNC(=N)N)C(=O)N[C@@H](CCC(=O)O)C(=O)N[C@@H](CCCNC(=N)N)C(=O)N[C@@H](Cc1ccc(-c2ccccc2)cc1)C(=O)O (Biotin-RRRRRRRRER[Bip]-OH) :: 80.2%

Okay, now this molecule:
What reported inhibition corresponds to CCc1ccc(-c2ccc(C[C@H](NC(=O)[C@H](CCCNC(=N)N)NC(=O)[C@H](CCC(=O)O)NC(=O)[C@H](CCCNC(=N)N)NC(=O)[C@H](CCCNC(=N)N)NC(=O)[C@H](CCCNC(=N)N)NC(=O)[C@H](CCCNC(=N)N)NC(=O)[C@H](CCCNC(=N)N)NC(=O)[C@H](CCCNC(=N)N)NC(=O)[C@H](CCCNC(=N)N)NC(=O)[C@H](CCCNC(=N)N)NC(=O)CCCC[C@@H]3SC[C@@H]4NC(=O)N[C@@H]43)C(=O)O)cc2)cc1 (Biotin-RRRRRRRRER[X2]-OH) on Integrin alpha-4/beta-7 (Mus musculus) (UniProt Q00651+P26011)?
58%

---

target: Integrin alpha-4/beta-7 (Mus musculus) (UniProt Q00651+P26011); experiment: Inhibition of alpha4beta7 assessed as inhibition of Mn(2+)-activated adhesion of mouse TK-1 T cells to mouse MAdCAM-1 at 50 uM incubated for 1 hr by cell adhesion assay; format: cell-based
Where a SMILES comes first, the peptide text is derived from it. [ ]: non-standard residue; d: D form. The star is where a group is joined. Phe(4-(2-MeO-Ph)) = COc1ccccc1-c1ccc(C[C@H](N)C(=O)O)cc1; Biotin = O=C1N[C@H]2[C@H](CS[C@H]2CCCCC(=O)*)N1
ASSAY ENDPOINT: inhibition (%)
API: value field is a number in %; no unit string.

Can you look up the measured inhibition of COc1ccccc1-c1ccc(C[C@H](NC(=O)[C@H](CCCNC(=N)N)NC(=O)[C@H](CCC(=O)O)NC(=O)[C@H](CCCNC(=N)N)NC(=O)[C@H](CCCNC(=N)N)NC(=O)[C@H](CCCNC(=N)N)NC(=O)[C@H](CCCNC(=N)N)NC(=O)[C@H](CCCNC(=N)N)NC(=O)[C@H](CCCNC(=N)N)NC(=O)[C@H](CCCNC(=N)N)NC(=O)[C@H](CCCNC(=N)N)NC(=O)CCCC[C@@H]2SC[C@@H]3NC(=O)N[C@@H]32)C(=O)O)cc1 (Biotin-RRRRRRRRER[Phe(4-(2-MeO-Ph))]-OH) for me?
48.1

---

biological target: Integrin alpha-4/beta-7 (Mus musculus) (UniProt Q00651+P26011); test: Inhibition of alpha4beta7 assessed as inhibition of Mn(2+)-activated adhesion of mouse TK-1 T cells to mouse MAdCAM-1 at 50 uM incubated for 1 hr by cell adhesion assay; type: cell-based
*1 amine or outer side, *2 acyl side, *3 side chain or, on linkers, in order; H or OH if unused. Where a SMILES comes first, the peptide text is derived from it. [ ]: non-standard residue; d: D form. The star is where a group is joined. X5 = N#Cc1ccc(-c2ccc(C[C@H](N[*:1])C(=O)[*:2])cc2)cc1; X4 = O=C([C@H](Cc1ccc(C2=CCCCC2)cc1)N[*:1])[*:2]; Biotin = O=C1N[C@H]2[C@H](CS[C@H]2CCCCC(=O)*)N1
ASSAY ENDPOINT: inhibition (%)
API: value field is a number in %; no unit string.

N=C(N)NCCC[C@H](NC(=O)CCCC[C@@H]1SC[C@@H]2NC(=O)N[C@@H]21)C(=O)N[C@@H](CCCNC(=N)N)C(=O)N[C@@H](CCCNC(=N)N)C(=O)N[C@@H](CCCNC(=N)N)C(=O)N[C@@H](CCCNC(=N)N)C(=O)N[C@@H](CCCNC(=N)N)C(=O)N[C@@H](CCCNC(=N)N)C(=O)N[C@@H](CCCNC(=N)N)C(=O)N[C@@H](CCC(=O)O)C(=O)N[C@@H](CCCNC(=N)N)C(=O)N[C@@H](Cc1ccc(C2=CCCCC2)cc1)C(=O)O (Biotin-RRRRRRRRER[X4]-OH) :: 49.7

Okay, now this molecule:
Can you look up the measured inhibition of N#Cc1ccc(-c2ccc(C[C@H](NC(=O)[C@H](CCCNC(=N)N)NC(=O)[C@H](CCC(=O)O)NC(=O)[C@H](CCCNC(=N)N)NC(=O)[C@H](CCCNC(=N)N)NC(=O)[C@H](CCCNC(=N)N)NC(=O)[C@H](CCCNC(=N)N)NC(=O)[C@H](CCCNC(=N)N)NC(=O)[C@H](CCCNC(=N)N)NC(=O)[C@H](CCCNC(=N)N)NC(=O)[C@H](CCCNC(=N)N)NC(=O)CCCC[C@@H]3SC[C@@H]4NC(=O)N[C@@H]43)C(=O)O)cc2)cc1 (Biotin-RRRRRRRRER[X5]-OH) for me?
45

---

biological target: Integrin alpha-4/beta-7 (Mus musculus) (UniProt Q00651+P26011); experiment: Inhibition of alpha4beta7 assessed as inhibition of Mn(2+)-activated adhesion of mouse TK-1 T cells to mouse MAdCAM-1 at 50 uM incubated for 1 hr by cell adhesion assay; type: cell-based
ASSAY ENDPOINT: inhibition (%)
API: value field is a number in %; no unit string.

What reported inhibition corresponds to N=C(N)NCCC[C@H](NC(=O)[C@H](CCCNC(=N)N)NC(=O)[C@H](CC(=O)O)NC(=O)[C@H](Cc1ccc(O)cc1)NC(=O)[C@@H](CCCNC(=N)N)NC(=O)[C@@H](CCCNC(=N)N)NC(=O)[C@@H](CCCNC(=N)N)NC(=O)[C@@H](CCCNC(=N)N)NC(=O)[C@@H](CCCNC(=N)N)NC(=O)[C@@H](CCCNC(=N)N)NC(=O)[C@@H](CCCNC(=N)N)NC(=O)[C@@H](CCCNC(=N)N)NC(=O)[C@@H](CCCNC(=N)N)NC(=O)CCCC[C@@H]1SC[C@@H]2NC(=O)N[C@@H]21)C(=O)N[C@@H](CCC(=O)O)C(=O)N[C@@H](Cc1ccc(O)cc1)C(=O)O on Integrin alpha-4/beta-7 (Mus musculus) (UniProt Q00651+P26011)?
66.4

---

target: Integrin alpha-4/beta-7 (Mus musculus) (UniProt Q00651+P26011); test: Inhibition of alpha4beta7 assessed as inhibition of Mn(2+)-activated adhesion of mouse TK-1 T cells to mouse MAdCAM-1 at 100 uM incubated for 1 hr by cell adhesion assay; assay type: cell-based
*1 amine or outer side, *2 acyl side, *3 side chain or, on linkers, in order; H or OH if unused. Where a SMILES comes first, the peptide text is derived from it. [ ]: non-standard residue; d: D form. The star is where a group is joined. Phe(4-(2-MeO-Ph)) = COc1ccccc1-c1ccc(C[C@H](N)C(=O)O)cc1; X3 = COc1cccc(OC)c1-c1ccc(C[C@H](N[*:1])C(=O)[*:2])cc1; X5 = N#Cc1ccc(-c2ccc(C[C@H](N[*:1])C(=O)[*:2])cc2)cc1; X2 = CCc1ccc(-c2ccc(C[C@H](N[*:1])C(=O)[*:2])cc2)cc1; X4 = O=C([C@H](Cc1ccc(C2=CCCCC2)cc1)N[*:1])[*:2]; Biotin = O=C1N[C@H]2[C@H](CS[C@H]2CCCCC(=O)*)N1; X1 = O=C([C@H](Cc1ccc(C2CCCCC2)cc1)N[*:1])[*:2]
Overview of recorded inhibition for various molecules
API: value field is a number in %; no unit string.

Take a look at these entries with their results.
N=C(N)NCCC[C@H](NC(=O)CCCC[C@@H]1SC[C@@H]2NC(=O)N[C@@H]21)C(=O)N[C@@H](CCCNC(=N)N)C(=O)N[C@@H](CCCNC(=N)N)C(=O)N[C@@H](CCCNC(=N)N)C(=O)N[C@@H](CCCNC(=N)N)C(=O)N[C@@H](CCCNC(=N)N)C(=O)N[C@@H](CCCNC(=N)N)C(=O)N[C@@H](CCCNC(=N)N)C(=O)N[C@@H](CCC(=O)O)C(=O)N[C@@H](CCCNC(=N)N)C(=O)N[C@@H](Cc1ccc(C2=CCCCC2)cc1)C(=O)O (Biotin-RRRRRRRRER[X4]-OH) :: 59.1
CCc1ccc(-c2ccc(C[C@H](NC(=O)[C@H](CCCNC(=N)N)NC(=O)[C@H](CCC(=O)O)NC(=O)[C@H](CCCNC(=N)N)NC(=O)[C@H](CCCNC(=N)N)NC(=O)[C@H](CCCNC(=N)N)NC(=O)[C@H](CCCNC(=N)N)NC(=O)[C@H](CCCNC(=N)N)NC(=O)[C@H](CCCNC(=N)N)NC(=O)[C@H](CCCNC(=N)N)NC(=O)[C@H](CCCNC(=N)N)NC(=O)CCCC[C@@H]3SC[C@@H]4NC(=O)N[C@@H]43)C(=O)O)cc2)cc1 (Biotin-RRRRRRRRER[X2]-OH) :: 74.2
N=C(N)NCCC[C@H](NC(=O)[C@H](CCCNC(=N)N)NC(=O)[C@H](CC(=O)O)NC(=O)[C@H](Cc1ccc(O)cc1)NC(=O)[C@@H](CCCNC(=N)N)NC(=O)[C@@H](CCCNC(=N)N)NC(=O)[C@@H](CCCNC(=N)N)NC(=O)[C@@H](CCCNC(=N)N)NC(=O)[C@@H](CCCNC(=N)N)NC(=O)[C@@H](CCCNC(=N)N)NC(=O)[C@@H](CCCNC(=N)N)NC(=O)[C@@H](CCCNC(=N)N)NC(=O)[C@@H](CCCNC(=N)N)NC(=O)CCCC[C@@H]1SC[C@@H]2NC(=O)N[C@@H]21)C(=O)N[C@@H](CCC(=O)O)C(=O)N[C@@H](Cc1ccc(O)cc1)C(=O)O :: 71.3
COc1cccc(OC)c1-c1ccc(C[C@H](NC(=O)[C@H](CCCNC(=N)N)NC(=O)[C@H](CCC(=O)O)NC(=O)[C@H](CCCNC(=N)N)NC(=O)[C@H](CCCNC(=N)N)NC(=O)[C@H](CCCNC(=N)N)NC(=O)[C@H](CCCNC(=N)N)NC(=O)[C@H](CCCNC(=N)N)NC(=O)[C@H](CCCNC(=N)N)NC(=O)[C@H](CCCNC(=N)N)NC(=O)[C@H](CCCNC(=N)N)NC(=O)CCCC[C@@H]2SC[C@@H]3NC(=O)N[C@@H]32)C(=O)O)cc1 (Biotin-RRRRRRRRER[X3]-OH) :: 50.9
N#Cc1ccc(-c2ccc(C[C@H](NC(=O)[C@H](CCCNC(=N)N)NC(=O)[C@H](CCC(=O)O)NC(=O)[C@H](CCCNC(=N)N)NC(=O)[C@H](CCCNC(=N)N)NC(=O)[C@H](CCCNC(=N)N)NC(=O)[C@H](CCCNC(=N)N)NC(=O)[C@H](CCCNC(=N)N)NC(=O)[C@H](CCCNC(=N)N)NC(=O)[C@H](CCCNC(=N)N)NC(=O)[C@H](CCCNC(=N)N)NC(=O)CCCC[C@@H]3SC[C@@H]4NC(=O)N[C@@H]43)C(=O)O)cc2)cc1 (Biotin-RRRRRRRRER[X5]-OH) :: 57
N=C(N)NCCC[C@H](NC(=O)CCCC[C@@H]1SC[C@@H]2NC(=O)N[C@@H]21)C(=O)N[C@@H](CCCNC(=N)N)C(=O)N[C@@H](CCCNC(=N)N)C(=O)N[C@@H](CCCNC(=N)N)C(=O)N[C@@H](CCCNC(=N)N)C(=O)N[C@@H](CCCNC(=N)N)C(=O)N[C@@H](CCCNC(=N)N)C(=O)N[C@@H](CCCNC(=N)N)C(=O)N[C@@H](CCC(=O)O)C(=O)N[C@@H](CCCNC(=N)N)C(=O)N[C@@H](Cc1ccc(C2CCCCC2)cc1)C(=O)O (Biotin-RRRRRRRRER[X1]-OH) :: 64.8

Can you look up the measured inhibition of COc1ccccc1-c1ccc(C[C@H](NC(=O)[C@H](CCCNC(=N)N)NC(=O)[C@H](CCC(=O)O)NC(=O)[C@H](CCCNC(=N)N)NC(=O)[C@H](CCCNC(=N)N)NC(=O)[C@H](CCCNC(=N)N)NC(=O)[C@H](CCCNC(=N)N)NC(=O)[C@H](CCCNC(=N)N)NC(=O)[C@H](CCCNC(=N)N)NC(=O)[C@H](CCCNC(=N)N)NC(=O)[C@H](CCCNC(=N)N)NC(=O)CCCC[C@@H]2SC[C@@H]3NC(=O)N[C@@H]32)C(=O)O)cc1 (Biotin-RRRRRRRRER[Phe(4-(2-MeO-Ph))]-OH) for me?
47.1
